Hello, the source for this data is the supplement of paper PMC12764529, in case you need it.

Each entry below carries its recorded folding stability dG unfold.
# PROTOCOL SUMMARY: folding stability dG unfold (combined trypsin and chymotrypsin); higher = more stable
Quick reminder: number only, in kcal/mol, skip the unit.

>  <RESIDUES>
SAGGSAGGSASVKVEEKPTEIVITTKSPSPVITVETIPLSPDGVPVGKKTTTISLPPKDIILSAGGSAGGSA [r18_300_JUSTAS]

>  <folding stability dG unfold [kcal/mol]>
-0.719

$$$$
>  <RESIDUES>
SAGGSAGPEITPPVVVVTFTFKFPDGKTIEIPTTDLEEGEKEIEKIKKPLLEKKNIELVKVTTKPVSAGGSA [r15_140_JUSTAS]

>  <folding stability dG unfold [kcal/mol]>
-0.583

$$$$
>  <RESIDUES>
SAGGGPLKPILLKVTAKVEKNGKLLEVEAEIAVPLPNKPITLEEIRKILEEALPPDVKIVSLELDPESAGGS [r16_407_TrMRF]

>  <folding stability dG unfold [kcal/mol]>
2.67

$$$$
>  <RESIDUES>
SAGGSAGGSAGGKKTIVIEINGKKYTITRIEFDKDTKKITIEIEFNGKKLKIEIELPKNLSAGGSAGGSAGG [r7_477_TrROS_Hall]

>  <folding stability dG unfold [kcal/mol]>
3.11

$$$$
>  <RESIDUES>
SAGGSAKKEVYKINIKVYNKNGKKVKEIKIELPEELKGKTIEEIAKELAKKLNIEKIEVKIEPVKPSAGGSA [r15_333_TrROS_Hall]

>  <folding stability dG unfold [kcal/mol]>
2.78

$$$$
>  <RESIDUES>
SAGGAPVSVSTSTLPDGRTVTTTTYPSGSTTTTITDPVTGATATASSPGSGTTTFTDPATGATTVVGSAGGS [r16_91_JUSTAS]

>  <folding stability dG unfold [kcal/mol]>
1.02

$$$$

Next, consider the following sequence.
Please give the measured folding stability dG unfold for this sequence: SAGGSQEFKFEILVPFDSPEEAKEEAEEIAKILQDHGLDVKVKVERDPNGAVKVPPTIRVDPEDGRPLSAGG [r13_697_TrROS]
-0.236

----------
# PROTOCOL SUMMARY: folding stability dG unfold (combined trypsin and chymotrypsin); higher = more stable
Class yes: folding stability dG unfold at least 0.9 kcal/mol. Class no: folding stability dG unfold below 0.9 kcal/mol.

These recorded examples may help you get a feel for the data.
>  <RESIDUES>
SAGGSAGGSAGGMLPNPKTIKVPLKPGETKEKVKEEAEKKFPPGKITVTVSEDGTATVLVSAGGSAGGSAGG [r7_273_JUSTAS]

>  <LABEL VALUE>
no

$$$$
>  <RESIDUES>
SAGGSAMAIFTVTPPDGVPVTERYSFTTPEEVEAAFAAAKAALPPGTALSVTLVPEEEVAAGRPLLSAGGSA [r15_469_JUSTAS]

>  <LABEL VALUE>
yes

$$$$

Consider the additional sequence presented here.
Is it the case that SAGGSAGGSGMMYKVTVEIYNPANGEKIGTIEREVTSEEEAKAEIEKELPLENVKVKITIEGPSAGGSAGGS [r12_578_JUSTAS] has folding stability dG unfold reaching or exceeding 0.9 kcal/mol?
yes

----------
# PROTOCOL SUMMARY: folding stability dG unfold (combined trypsin and chymotrypsin); higher = more stable
Assign classes using reported folding stability dG unfold values and the ranges low bin = under 0.5 kcal/mol, mid bin = from 0.5 kcal/mol up to 2 kcal/mol, high bin = 2 kcal/mol and over, please.

Below, 6 sequences whose answers are already recorded.
>  <RESIDUES>
SAGGSAGGSAGGKTIRFKAKSPEEIAEKIKKGEEILTPDGKPVKITKVEPLPDGSVLITGSAGGSAGGSAGG [r11_48_TrMRF]

>  <LABEL VALUE>
low bin

$$$$
>  <RESIDUES>
SAGGMKLPENAKVVKKIEIKDEKTGKTFKATIVKNKDGSLYIFIEKDGKIYKFKIENGKIKMEEIPPSAGGS [r16_711_TrROS_Hall]

>  <LABEL VALUE>
high bin

$$$$
>  <RESIDUES>
SAGGMILKITIPKEDEEKAKELADELAKKLEEETGKPIKVKVKVEKNENGELTIVIEVDGKKIEIKLSAGGS [r16_356_TrROS_Hall]

>  <LABEL VALUE>
mid bin

$$$$
>  <RESIDUES>
SGISNEEIKKILEEIAKEYPGLKIEIKPGTEPSVAKGPKAVVTLTRKPGYLEITITFPETGETTTIPIPPSA [r9_1062_JUSTAS]

>  <LABEL VALUE>
high bin

$$$$
>  <RESIDUES>
SAGGPPPKWVKIDIFIFIYNPDNGRPIFIRITSIEIRLDENNELDVEIEFEVFDPNGKPVKYTMTFKSAGGS [r16_200_TrROS]

>  <LABEL VALUE>
high bin

$$$$
>  <RESIDUES>
SEEVEIEIRIRVEVDSLEEARALAEALEELGFEVEVKVVERDGKLVVEVTIRIRVPAPPPPPLSEEELKASA [r9_863_TrROS_Hall]

>  <LABEL VALUE>
high bin

$$$$

Now consider a different sequence.
Place this sequence in its band: SAGGSAGGSAGGLPDREILEVRVLNPEREETGLRVRVEVVLPDGPVTIELPAEEVKELASAGGSAGGSAGGS [r10_771_TrMRF]
mid bin

----------
# PROTOCOL SUMMARY: folding stability dG unfold from chymotrypsin proteolysis; higher = more stable
MEASUREMENT TYPE: folding stability dG unfold (kcal/mol)
Numbers only here, please. The scale is kcal/mol.

>  <RESIDUES>
SMVVIEFETKKPKEQAEKAVEKAKKEIPELEEVLEIEVEEFPDFLKVKIVLKGGKITPEDLEKLKEFLEKSA [r9_195_TrMRF]

>  <folding stability dG unfold / kcal/mol>
2.4

$$$$
>  <RESIDUES>
SAGGSMIITRDPATGLVTVYKNGKKVKTIEVPPGNPVGVSLSYNPSPNTYTVTLTTPESPVKISNLSAGGSA [r2_399_JUSTAS]

>  <folding stability dG unfold / kcal/mol>
1.31

$$$$
>  <RESIDUES>
SAMTVERLPDGSLRITIPDPNSDTTYTIEIRRLPDGSYEVTITTTKPDGSTTTTTRPMSEEEAIAEVLASAG [r14_179_JUSTAS]

>  <folding stability dG unfold / kcal/mol>
3.54

$$$$

Turning now to a further sequence:
Entry SAGGSAGGSEEVVRTETSTSTTPDGKRVKTTTTTLPTPTTVTTTTVYAPGGEVLETTTTTTAASAGGSAGGS [r12_727_JUSTAS] : reported folding stability dG unfold = ?
-0.123

----------
# PROTOCOL SUMMARY: folding stability dG unfold from trypsin proteolysis; higher = more stable
Threshold rule: folding stability dG unfold greater than or equal to 2 kcal/mol is t; below that, f.

>  <RESIDUES>
SAGGSAGGSAGGGRMLLTETETIFSPSGGESVVTRLVTVFRPPPPVFLPDPEGRWSELVSAGGSAGGSAGGS [r10_330_JUSTAS]

>  <LABEL VALUE>
f

$$$$
>  <RESIDUES>
SAGKISSIDISPFKLPDGSYPYLLRVSFPDLGTEVDFIFPAKPSDAINFAKELRKSLPNIPLTFSNISSAGG [r19_317_TrMRF]

>  <LABEL VALUE>
f

$$$$
>  <RESIDUES>
SAGGSAGGSAAVPVSETPLGTLPDGRRVRLRRYRDPDGNLYTFLEVEPLPRPLSPADLEKAAASAGGSAGGS [r12_775_TrMRF]

>  <LABEL VALUE>
f

$$$$

In plain terms: is recorded folding stability dG unfold at least 2 kcal/mol for SAGGSAPEIPTDALVRVRDPNSDKWYEATVLEARKLPGGELVYLIRLTKDGNEELVPTDLATVELKSAGGSA [r15_62_JUSTAS] ?
f

Check if folding stability dG unfold >= 2 kcal/mol (inclusive). Item: SAGGATIELEAEEHPETKKITIYVKSENPILTIEKIAKELKEKEDDIELTLVNEDGVPYTIKLEDLISAGGS [r8_236_TrMRF]
f

Does SAGGMIRITTEDGEELSEEELAELEEAIRKGDLDEAVKKIEELLRERFGKEIKIKVEVFFPPPPPPESAGGS [r8_48_TrROS_Hall] have a reported folding stability dG unfold of at least 2 kcal/mol?
t

Quick check: does SAGGVREIAKRIANFAREHGYEVEVDEIEPPPNGYVVIDAKIQMRDGGKPVHEFPISIRFPPPPGDPSAGGS [r8_102_TrROS] have folding stability dG unfold greater than or equal to 2 kcal/mol?
t

----------
# PROTOCOL SUMMARY: folding stability dG unfold from trypsin proteolysis; higher = more stable
Returns Satisfied if the recorded folding stability dG unfold is greater than or equal to 0.8 kcal/mol, and Not satisfied otherwise.

# example entries with known answers
>  <RESIDUES>
SAGGSAGGSAGMKNKNYKVYTYKINIIDPGYENTTIIVEPNPAKPKAKPITIPIIIVEPASAGGSAGGSAGG [r11_257_TrMRF]

>  <LABEL VALUE>
Not satisfied

$$$$
>  <RESIDUES>
SAGGSAGGSMKVEITKVEPETGPNGRPYYRVEVKVIGEDGSPYTFTFYFEKPSDIENAKISLDSAGGSAGGS [r20_130_TrMRF]

>  <LABEL VALUE>
Satisfied

$$$$
>  <RESIDUES>
SAGGSAGGSMKIYEVPPEVAENMSLEEIIESLVLPGYPAKAEAFEDEGPGYVLVDLFLPPELGSAGGSAGGS [r12_716_TrMRF]

>  <LABEL VALUE>
Not satisfied

$$$$
>  <RESIDUES>
SAGGMKKVKALVVANPFDPNKYKVFVKAEEEEKVFEFDPNNPEKIIEELEKLLPEDYKLDEIVFESGASAGG [r13_519_TrMRF]

>  <LABEL VALUE>
Not satisfied

$$$$
>  <RESIDUES>
SAGGSMPETVKVRVRNADGSLLTLEITRDADGELTVTLEVDGKTVELSLEELEKLPPGVEVVEVEPSAGGSA [r2_431_TrROS_Hall]

>  <LABEL VALUE>
Satisfied

$$$$

Hi team, for SAGGSAGGSAGGPLKVEVIGSIEGDDRVYVLTRVPGVGGLFVAEYEKPSGKILSVSPVPLSAGGSAGGSAGG [r7_154_TrMRF] , is the recorded folding stability dG unfold at or above 0.8 kcal/mol?
Not satisfied

Quick check: does SAGGSAGGSAGSIGFDSLEEAEKAIEEARRNNVPLTIELRLPDGSTLRIPVDLEIPEDDPSAGGSAGGSAGG [r17_462_TrMRF] have folding stability dG unfold greater than or equal to 0.8 kcal/mol?
Satisfied
